All figures here come from patent US20250195501A1.

test system: Vero-E6 cells; settings: read-out: CC50 Mean ± SD; Vero-E6 cells, 24 h at 37° C., no virus, alamarBlue
# CC50 listing for each entry below
ENDPOINT LABEL: CC50

>>> result("Cc1cc(-c2ccc(/N=N/c3ccc4c(S(=O)(=O)[O-])cc(S(=O)(=O)[O-])c(N)c4c3O)c(C)c2)ccc1/N=N/c1ccc2c(S(=O)(=O)[O-])cc(S(=O)(=O)[O-])c(N)c2c1O.[Na+].[Na+].[Na+].[Na+]")
"> 1000 µM"
>>> result("Cc1ccc(C(=O)Nc2ccc(S(=O)(=O)O)c3cc(S(=O)(=O)O)cc(S(=O)(=O)O)c23)cc1NC(=O)c1cccc(NC(=O)Nc2cccc(C(=O)Nc3cc(C(=O)Nc4ccc(S(=O)(=O)O)c5cc(S(=O)(=O)O)cc(S(=O)(=O)O)c45)ccc3C)c2)c1")
"> 1000 µM"

###

The following compounds have recorded toxicity toward Vero-E6 cells in the infection assay on Vero-E6 cells.
ENDPOINT LABEL: toxicity toward Vero-E6 cells in the infection assay

>>> result("CC1(C)CCC(CN2CCN(c3ccc(C(=O)NS(=O)(=O)c4ccc(NCC5CCOCC5)c([N+](=O)[O-])c4)c(Oc4cnc5[nH]ccc5c4)c3)CC2)=C(c2ccc(Cl)cc2)C1")
"toxicity was observed"
>>> result("CCc1c2c(nc3ccc(OC(=O)N4CCC(N5CCCCC5)CC4)cc13)-c1cc3c(c(=O)n1C2)COC(=O)[C@]3(O)CC")
"toxicity was observed"
>>> result("COC[C@H]1C[C@@H](c2nc(-c3ccc4c(c3)COc3cc5c(ccc6nc([C@@H]7CC[C@H](C)N7C(=O)[C@@H](NC(=O)OC)C(C)C)[nH]c65)cc3-4)c[nH]2)N(C(=O)[C@H](NC(=O)OC)c2ccccc2)C1")
"toxicity was observed"
